Molecular target: Stb5 (UniProt P38699)
Sequence: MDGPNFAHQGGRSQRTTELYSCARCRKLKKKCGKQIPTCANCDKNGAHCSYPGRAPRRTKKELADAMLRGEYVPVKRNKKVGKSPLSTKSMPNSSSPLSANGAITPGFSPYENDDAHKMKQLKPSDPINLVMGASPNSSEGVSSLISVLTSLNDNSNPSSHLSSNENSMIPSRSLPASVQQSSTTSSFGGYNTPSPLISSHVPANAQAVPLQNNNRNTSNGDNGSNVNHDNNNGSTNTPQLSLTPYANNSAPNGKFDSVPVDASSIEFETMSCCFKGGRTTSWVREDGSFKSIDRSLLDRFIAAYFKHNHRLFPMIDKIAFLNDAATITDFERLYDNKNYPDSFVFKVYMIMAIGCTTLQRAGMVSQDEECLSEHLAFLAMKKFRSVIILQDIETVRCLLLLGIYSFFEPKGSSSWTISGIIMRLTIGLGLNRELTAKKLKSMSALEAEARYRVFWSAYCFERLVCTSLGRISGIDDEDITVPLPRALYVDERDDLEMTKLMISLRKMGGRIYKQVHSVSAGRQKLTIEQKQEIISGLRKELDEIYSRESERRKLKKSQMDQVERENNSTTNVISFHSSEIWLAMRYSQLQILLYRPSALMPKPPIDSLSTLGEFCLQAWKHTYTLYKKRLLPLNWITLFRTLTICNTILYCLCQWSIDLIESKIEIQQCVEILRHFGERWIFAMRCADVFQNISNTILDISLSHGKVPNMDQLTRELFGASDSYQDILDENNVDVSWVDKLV
Assay: PBM E-score (8-mer binding enrichment) (E-score (-0.5 to 0.5)); higher = stronger / more preferred TF binding
Settings: protein concentration: 200 nM; construct: GST-full length
In all, about 33,000 sequences were measured (“E-score (-0.5 to 0.5)”: median about -0.054, highest 2% from about 0.35 on). Shown is part of a subset that was picked to be rich in the highest values.
PBM E-score below 0.2 gives Not met; PBM E-score at or above it gives Met.

Use the examples below as a reference point.
1. AAACCGAT : Not met
2. CCGGTGAC : Met
3. ACCGAACG : Met
4. ATCGGGCC : Met
5. CGCCGGAA : Not met

Field: next sequence
# input Tell me whether PBM E-score is at least 0.2 here: `AGGGCGAG`
# output Not met

* * *

# PBM E-score values compiled below
Biological target: Stb5 (UniProt P38699)
Sequence: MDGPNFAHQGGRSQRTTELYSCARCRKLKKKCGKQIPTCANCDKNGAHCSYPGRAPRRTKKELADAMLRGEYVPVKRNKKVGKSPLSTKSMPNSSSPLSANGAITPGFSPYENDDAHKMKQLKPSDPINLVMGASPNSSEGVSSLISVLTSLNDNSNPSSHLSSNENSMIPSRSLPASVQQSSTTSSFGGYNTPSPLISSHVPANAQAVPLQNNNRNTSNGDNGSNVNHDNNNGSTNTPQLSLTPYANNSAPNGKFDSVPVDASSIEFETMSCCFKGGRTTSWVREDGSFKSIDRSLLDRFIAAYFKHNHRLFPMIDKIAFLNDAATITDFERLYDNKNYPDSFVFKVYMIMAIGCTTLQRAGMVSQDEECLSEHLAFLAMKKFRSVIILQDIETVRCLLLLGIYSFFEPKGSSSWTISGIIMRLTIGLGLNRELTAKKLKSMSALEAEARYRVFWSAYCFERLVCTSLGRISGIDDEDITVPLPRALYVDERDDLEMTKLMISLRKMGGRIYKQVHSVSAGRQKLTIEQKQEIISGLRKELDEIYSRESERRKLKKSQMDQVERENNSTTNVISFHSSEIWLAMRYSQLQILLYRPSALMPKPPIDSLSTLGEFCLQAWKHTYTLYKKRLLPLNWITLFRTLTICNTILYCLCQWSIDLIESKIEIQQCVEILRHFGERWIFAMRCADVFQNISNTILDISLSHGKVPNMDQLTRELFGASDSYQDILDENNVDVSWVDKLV
Experiment: PBM E-score (8-mer binding enrichment) (E-score (-0.5 to 0.5)); higher = stronger / more preferred TF binding
Details: protein concentration: 200 nM; construct: GST-full length
Whole data set: some 33,000 sequences, median “E-score (-0.5 to 0.5)” near -0.054, cut for the highest 2% near 0.35. Many of the other results were omitted from the sample, so the highest values are more common in it than they were.
// return a plain number; no unit text

Consider the worked cases shown below.
1. GGCGGACC : 0.412
2. GATACTCC : 0.146
3. ACGATCCT : -0.231
4. ATCGGACA : 0.332

Pending sequence:
# input Stb5 (UniProt P38699) / PBM E-score / `ATTGGAAA` : value?
# output -0.0189

* * *

Target: Stb5 (UniProt P38699)
Sequence: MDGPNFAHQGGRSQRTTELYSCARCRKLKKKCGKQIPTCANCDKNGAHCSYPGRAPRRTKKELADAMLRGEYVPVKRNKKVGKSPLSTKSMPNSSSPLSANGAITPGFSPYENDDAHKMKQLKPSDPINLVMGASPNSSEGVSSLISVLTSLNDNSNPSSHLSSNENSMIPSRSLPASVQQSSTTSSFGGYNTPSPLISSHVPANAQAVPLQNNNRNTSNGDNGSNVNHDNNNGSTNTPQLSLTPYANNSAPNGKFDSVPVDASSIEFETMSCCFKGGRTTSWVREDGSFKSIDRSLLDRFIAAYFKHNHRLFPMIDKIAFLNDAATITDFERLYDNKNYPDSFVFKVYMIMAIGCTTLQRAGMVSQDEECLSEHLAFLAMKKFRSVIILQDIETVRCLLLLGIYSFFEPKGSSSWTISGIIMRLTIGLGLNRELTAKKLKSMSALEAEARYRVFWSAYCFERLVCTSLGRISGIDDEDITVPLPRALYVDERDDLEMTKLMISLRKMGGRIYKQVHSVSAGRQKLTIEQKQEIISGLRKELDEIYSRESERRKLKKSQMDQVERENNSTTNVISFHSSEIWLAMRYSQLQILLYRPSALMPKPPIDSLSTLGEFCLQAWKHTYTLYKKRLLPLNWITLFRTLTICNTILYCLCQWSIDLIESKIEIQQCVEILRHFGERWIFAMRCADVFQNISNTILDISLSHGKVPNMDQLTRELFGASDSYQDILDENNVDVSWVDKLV
Test: PBM E-score (8-mer binding enrichment) (E-score (-0.5 to 0.5)); higher = stronger / more preferred TF binding
Details: protein concentration: 200 nM; construct: GST-full length
Whole data set: some 33,000 sequences, median “E-score (-0.5 to 0.5)” near -0.054, cut for the highest 2% near 0.35. The full list was thinned out, with the highest values kept by preference.
Label scheme, based on PBM E-score: group A: < -0.06; group B: ≥ -0.06 and < 0.3; group C: ≥ 0.3

1) TCACTCGA : group A
2) CGGGCCGA : group C
3) ACTTGAGC : group A
4) AACGGTGC : group C
5) AGTCAAAA : group B
6) AGGGCCGC : group C
7) CGGCGATA : group C
8) ATTGTCCC : group B

# input Using the reported PBM E-score, which band applies to `CACGGTGA` ?
# output group B

# input Then this sequence: `TACCCCAA`
# output group A

# input Then this sequence: `CGCGTCAC`
# output group A

* * *

Target: Stb5 (UniProt P38699)
Sequence: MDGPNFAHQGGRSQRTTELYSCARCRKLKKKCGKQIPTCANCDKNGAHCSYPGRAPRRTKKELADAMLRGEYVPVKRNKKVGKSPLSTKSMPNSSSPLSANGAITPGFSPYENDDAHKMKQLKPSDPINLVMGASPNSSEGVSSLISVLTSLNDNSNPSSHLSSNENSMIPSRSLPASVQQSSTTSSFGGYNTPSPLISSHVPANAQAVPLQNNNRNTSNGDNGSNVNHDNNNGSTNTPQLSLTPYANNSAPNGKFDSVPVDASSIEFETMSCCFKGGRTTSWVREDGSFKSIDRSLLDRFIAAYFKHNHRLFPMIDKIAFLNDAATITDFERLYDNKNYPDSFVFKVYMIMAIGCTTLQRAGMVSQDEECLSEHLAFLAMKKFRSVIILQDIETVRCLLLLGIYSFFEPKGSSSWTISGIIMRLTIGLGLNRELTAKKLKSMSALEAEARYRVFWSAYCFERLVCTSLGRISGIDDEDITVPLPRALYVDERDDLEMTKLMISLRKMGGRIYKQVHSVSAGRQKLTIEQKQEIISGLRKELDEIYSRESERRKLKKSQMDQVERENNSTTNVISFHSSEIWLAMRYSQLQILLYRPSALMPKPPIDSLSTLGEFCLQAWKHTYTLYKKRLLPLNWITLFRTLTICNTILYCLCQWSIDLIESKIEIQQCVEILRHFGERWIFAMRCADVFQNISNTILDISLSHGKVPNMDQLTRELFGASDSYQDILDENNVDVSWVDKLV
Assay: PBM E-score (8-mer binding enrichment) (E-score (-0.5 to 0.5)); higher = stronger / more preferred TF binding
Settings: protein concentration: 200 nM; construct: GST-full length
Over roughly 33,000 sequences, “E-score (-0.5 to 0.5)” has its median near -0.054; the highest 2% begin near 0.35. Many of the other results were omitted from the sample, so the highest values are more common in it than they were.
experimentalReadout: PBM E-score
// return a plain number; no unit text

1) AACACCTG : 0.179
2) AAACCCCT : 0.153
3) GACACCGC : 0.454
4) CCAATATA : -0.07
5) GCTTTAAC : -0.0801

# input Stb5 (UniProt P38699) / PBM E-score / `CTAGCGTC` : value?
# output 0.0861

# input Then this sequence: `ACCGCACG`
# output 0.153

# input Then this sequence: `GACACCCC`
# output 0.014

# input Then this sequence: `AGACCCGG`
# output 0.341

# input Then this sequence: `CCCCCCCA`
# output -0.263
